The reported measurements were obtained from patent US11969476B2.

Test: Cytotoxicity to mammalian cells
Settings: human, 293T cells
Ends that are not written are not given here.
Reported CC50 values are given for each entry in this list.
Expressed in µg/mL, but write only the number.

{"columns": ["SEQUENCE_CONTENT", "CC50 (µg/mL)"],
 "data": [
  ["GGGGIGKFLKKAKKFGKAFVKILKK [Peptide P261]", 250]
]}

Per the records, this sequence ( GGGHTASDAAAAAALTAANAAAAAAASMA [Peptide P292] ) has CC50 equal to 250

Per the records, this sequence ( GGGKFFRKLKKSVKKRAKEFFKKPRVIGVSIPF [Peptide P297] ) has CC50 equal to 780

Per the records, this sequence ( GGGKRFKKFFKKLKNSVKKRAKKFFKKPRVIGVSIPF [Peptide P296] ) has CC50 equal to 400
